Every entry's value here was drawn from ChEMBL document CHEMBL1156878.

Please go through the items and note down their inhibition.
systemUnderTest: DNA topoisomerase 2-alpha (Homo sapiens)
assayText: Inhibition of human recombinant DNA topoisomerase 2alpha -mediated pBR322 DNA relaxation at 100 uM by gel electrophoresis
Report the value in % with no unit label.

GET /values?item= O=c1c2ccc3ccccc3c2oc2cc(OCC3CS3)cc(O)c12 (stereo unspecified) &system= DNA topoisomerase 2-alpha (Homo sapiens) returns inhibition: 13.9

GET /values?item= O=c1c2cc3ccccc3cc2oc2cc(OCC3CO3)cc(O)c12 (stereo unspecified) &system= DNA topoisomerase 2-alpha (Homo sapiens) returns inhibition: -0

GET /values?item= O=c1c2c(O)cc(OCC3CS3)cc2oc2ccc3ccccc3c12 (stereo unspecified) &system= DNA topoisomerase 2-alpha (Homo sapiens) returns inhibition: 5.3

GET /values?item= O=c1c2c(OCC3CO3)cc(OCC3CO3)cc2oc2ccc3ccccc3c12 (stereo unspecified) &system= DNA topoisomerase 2-alpha (Homo sapiens) returns inhibition: 1

GET /values?item= O=c1c2cc3ccccc3cc2oc2cc(OCC3CS3)cc(OCC3CS3)c12 (stereo unspecified) &system= DNA topoisomerase 2-alpha (Homo sapiens) returns inhibition: 1.9

GET /values?item= O=c1c2cc3ccccc3cc2oc2cc(OCC3CO3)cc(OCC3CO3)c12 (stereo unspecified) &system= DNA topoisomerase 2-alpha (Homo sapiens) returns inhibition: 60.1

----------
Tested on: HL-60
assayText: Cytotoxicity against human HL60 cells after 48 hrs by MTT assay
Assay type: functional, cell-based
testParameters: HL-60, 48 h
Counter-ions that a name gives are not always drawn.
Label t when IC50 < 9 µM; otherwise f.

Lookup: Is it true that IC50 reported for COc1cc([C@@H]2c3cc4c(cc3[C@@H](O[C@@H]3O[C@@H]5CO[C@@H](C)O[C@H]5[C@H](O)[C@H]3O)[C@H]3COC(=O)[C@H]23)OCO4)cc(OC)c1O [ETOPOSIDE] is less than 9 µM?
Found: t

Lookup: Is it true that IC50 reported for O=c1c2cc3ccccc3cc2oc2cc(OCC3CO3)cc(OCC3CO3)c12 (stereo not drawn) is less than 9 µM?
Found: t

Lookup: Is it true that IC50 reported for COc1cccc2c1C(=O)c1c(O)c3c(c(O)c1C2=O)C[C@@](O)(C(=O)CO)C[C@@H]3O[C@H]1C[C@H](N)[C@H](O)[C@H](C)O1 [DOXORUBICIN HYDROCHLORIDE] is less than 9 µM?
Found: t

Lookup: Is it true that IC50 reported for O=c1c2ccc3ccccc3c2oc2cc(OCC3CS3)cc(OCC3CS3)c12 (stereo not drawn) is less than 9 µM?
Found: f

Lookup: Is it true that IC50 reported for O=c1c2ccc3ccccc3c2oc2cc(OCC3CS3)cc(O)c12 (stereo not drawn) is less than 9 µM?
Found: f

Lookup: Is it true that IC50 reported for O=c1c2cc3ccccc3cc2oc2cc(OCC3CO3)cc(O)c12 (stereo not drawn) is less than 9 µM?
Found: f

Lookup: Is it true that IC50 reported for O=c1c2c(O)cc(OCC3CO3)cc2oc2ccc3ccccc3c12 (stereo not drawn) is less than 9 µM?
Found: t

Lookup: Is it true that IC50 reported for O=c1c2ccc3ccccc3c2oc2cc(OCC3CO3)cc(OCC3CO3)c12 (stereo not drawn) is less than 9 µM?
Found: t

----------
Test system: HL-60
assayText: Cytotoxicity against human HL60 cells after 48 hrs by MTT assay
Format: functional, cell-based
testParameters: HL-60, 48 h
Please go through the items and note down their IC50.

Kindly note the recorded IC50 for O=c1c2ccc3ccccc3c2oc2cc(OCC3CO3)cc(O)c12 (configuration not stated) , which is 3.67 µM

Kindly note the recorded IC50 for O=c1c2c(O)cc(OCC3CS3)cc2oc2ccc3ccccc3c12 (configuration not stated) , which is 3.48 µM

Kindly note the recorded IC50 for CC[C@@]1(O)C(=O)OCc2c1cc1n(c2=O)Cc2cc3ccccc3nc2-1 [CAMPTOTHECIN] , which is 0.065 µM

Kindly note the recorded IC50 for O=c1c2c(OCC3CO3)cc(OCC3CO3)cc2oc2ccc3ccccc3c12 (configuration not stated) , which is 6.47 µM

Kindly note the recorded IC50 for O=c1c2cc3ccccc3cc2oc2cc(OCC3CS3)cc(O)c12 (configuration not stated) , which is 2.48 µM

Kindly note the recorded IC50 for O=c1c2cc3ccccc3cc2oc2cc(OCC3CS3)cc(OCC3CS3)c12 (configuration not stated) , which is 5.13 µM

Kindly note the recorded IC50 for O=c1c2c(OCC3CS3)cc(OCC3CS3)cc2oc2ccc3ccccc3c12 (configuration not stated) , which is 1.85 µM

----------
systemUnderTest: DNA topoisomerase 1 (Homo sapiens)
Sequence (whole entry): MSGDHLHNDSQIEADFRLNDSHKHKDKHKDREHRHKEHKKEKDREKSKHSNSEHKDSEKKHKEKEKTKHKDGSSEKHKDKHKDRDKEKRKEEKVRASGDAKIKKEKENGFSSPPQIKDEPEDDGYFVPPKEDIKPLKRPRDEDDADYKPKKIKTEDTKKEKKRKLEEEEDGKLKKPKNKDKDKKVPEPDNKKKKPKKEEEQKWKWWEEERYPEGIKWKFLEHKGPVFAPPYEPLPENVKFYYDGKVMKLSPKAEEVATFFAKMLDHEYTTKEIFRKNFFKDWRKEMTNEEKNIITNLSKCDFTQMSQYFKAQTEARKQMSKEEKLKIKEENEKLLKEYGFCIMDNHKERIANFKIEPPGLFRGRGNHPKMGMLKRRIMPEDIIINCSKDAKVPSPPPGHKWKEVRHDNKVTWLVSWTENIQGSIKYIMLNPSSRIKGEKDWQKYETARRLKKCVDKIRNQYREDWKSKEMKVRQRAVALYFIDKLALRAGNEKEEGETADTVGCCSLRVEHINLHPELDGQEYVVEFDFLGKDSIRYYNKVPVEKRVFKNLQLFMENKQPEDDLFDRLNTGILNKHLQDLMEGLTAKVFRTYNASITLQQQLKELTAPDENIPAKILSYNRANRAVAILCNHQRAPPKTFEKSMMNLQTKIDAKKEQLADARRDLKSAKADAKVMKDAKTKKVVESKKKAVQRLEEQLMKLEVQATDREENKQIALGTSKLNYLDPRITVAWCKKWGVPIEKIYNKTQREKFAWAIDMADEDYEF
assayText: Inhibition of human recombinant topoisomerase 1-mediated pBR322 DNA relaxation at 100 uM by gel electrophoresis
recordedMetric: inhibition (%)
Report the value in % with no unit label.

Kindly note the recorded inhibition for O=c1c2ccc3ccccc3c2oc2cc(OCC3CO3)cc(OCC3CO3)c12 (configuration not stated) , which is 11.9

Kindly note the recorded inhibition for O=c1c2ccc3ccccc3c2oc2cc(OCC3CO3)cc(O)c12 (configuration not stated) , which is 1.7

Kindly note the recorded inhibition for O=c1c2cc3ccccc3cc2oc2cc(OCC3CS3)cc(OCC3CS3)c12 (configuration not stated) , which is 4.3

Kindly note the recorded inhibition for O=c1c2c(O)cc(OCC3CS3)cc2oc2ccc3ccccc3c12 (configuration not stated) , which is -0

Kindly note the recorded inhibition for O=c1c2ccc3ccccc3c2oc2cc(OCC3CS3)cc(O)c12 (configuration not stated) , which is 15.6

Kindly note the recorded inhibition for O=c1c2cc3ccccc3cc2oc2cc(OCC3CO3)cc(OCC3CO3)c12 (configuration not stated) , which is 12.3

Kindly note the recorded inhibition for O=c1c2cc3ccccc3cc2oc2cc(OCC3CS3)cc(O)c12 (configuration not stated) , which is 0.5

Kindly note the recorded inhibition for O=c1c2c(OCC3CS3)cc(OCC3CS3)cc2oc2ccc3ccccc3c12 (configuration not stated) , which is -0

Kindly note the recorded inhibition for O=c1c2ccc3ccccc3c2oc2cc(OCC3CS3)cc(OCC3CS3)c12 (configuration not stated) , which is 79

Kindly note the recorded inhibition for O=c1c2cc3ccccc3cc2oc2cc(OCC3CO3)cc(O)c12 (configuration not stated) , which is 13.7

Kindly note the recorded inhibition for O=c1c2c(O)cc(OCC3CO3)cc2oc2ccc3ccccc3c12 (configuration not stated) , which is -0

Kindly note the recorded inhibition for O=c1c2c(OCC3CO3)cc(OCC3CO3)cc2oc2ccc3ccccc3c12 (configuration not stated) , which is 18

----------
systemUnderTest: DNA topoisomerase 1 (Homo sapiens)
Sequence (whole entry): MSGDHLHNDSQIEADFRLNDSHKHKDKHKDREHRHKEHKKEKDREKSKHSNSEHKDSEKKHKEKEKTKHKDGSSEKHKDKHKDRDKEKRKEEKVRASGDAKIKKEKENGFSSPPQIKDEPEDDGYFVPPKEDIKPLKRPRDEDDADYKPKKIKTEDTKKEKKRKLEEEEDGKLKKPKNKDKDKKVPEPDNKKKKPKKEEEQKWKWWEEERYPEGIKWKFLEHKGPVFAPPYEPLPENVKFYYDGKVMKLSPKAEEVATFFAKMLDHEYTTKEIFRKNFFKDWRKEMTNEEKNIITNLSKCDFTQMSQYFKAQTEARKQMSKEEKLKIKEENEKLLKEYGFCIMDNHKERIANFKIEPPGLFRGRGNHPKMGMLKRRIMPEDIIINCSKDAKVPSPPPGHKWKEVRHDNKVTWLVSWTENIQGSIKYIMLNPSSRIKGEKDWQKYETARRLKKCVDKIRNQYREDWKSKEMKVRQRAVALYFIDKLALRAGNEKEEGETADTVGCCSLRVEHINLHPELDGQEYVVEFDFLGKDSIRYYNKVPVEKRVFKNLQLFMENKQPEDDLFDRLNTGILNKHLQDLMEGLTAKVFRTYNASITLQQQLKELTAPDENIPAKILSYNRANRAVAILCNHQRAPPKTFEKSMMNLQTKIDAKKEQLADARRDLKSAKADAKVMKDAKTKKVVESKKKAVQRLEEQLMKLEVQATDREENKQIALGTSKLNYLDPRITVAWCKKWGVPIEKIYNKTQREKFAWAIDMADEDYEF
assayText: Inhibition of human recombinant topoisomerase 1-mediated pBR322 DNA relaxation at 20 uM by gel electrophoresis
Short version: inhibition at least 2% is satisfied, less is not satisfied.

Lookup: Does inhibition meet or surpass 2% for O=c1c2ccc3ccccc3c2oc2cc(OCC3CS3)cc(O)c12 (configuration not stated) ?
Found: satisfied

Lookup: Does inhibition meet or surpass 2% for O=c1c2ccc3ccccc3c2oc2cc(OCC3CO3)cc(OCC3CO3)c12 (configuration not stated) ?
Found: not satisfied

Lookup: Does inhibition meet or surpass 2% for O=c1c2cc3ccccc3cc2oc2cc(OCC3CO3)cc(O)c12 (configuration not stated) ?
Found: satisfied

Lookup: Does inhibition meet or surpass 2% for O=c1c2c(OCC3CO3)cc(OCC3CO3)cc2oc2ccc3ccccc3c12 (configuration not stated) ?
Found: not satisfied

Lookup: Does inhibition meet or surpass 2% for O=c1c2c(OCC3CS3)cc(OCC3CS3)cc2oc2ccc3ccccc3c12 (configuration not stated) ?
Found: not satisfied

Lookup: Does inhibition meet or surpass 2% for O=c1c2c(O)cc(OCC3CS3)cc2oc2ccc3ccccc3c12 (configuration not stated) ?
Found: satisfied

Lookup: Does inhibition meet or surpass 2% for O=c1c2cc3ccccc3cc2oc2cc(OCC3CS3)cc(O)c12 (configuration not stated) ?
Found: not satisfied

Lookup: Does inhibition meet or surpass 2% for O=c1c2cc3ccccc3cc2oc2cc(OCC3CO3)cc(OCC3CO3)c12 (configuration not stated) ?
Found: satisfied

Lookup: Does inhibition meet or surpass 2% for O=c1c2c(O)cc(OCC3CO3)cc2oc2ccc3ccccc3c12 (configuration not stated) ?
Found: satisfied

Lookup: Does inhibition meet or surpass 2% for O=c1c2ccc3ccccc3c2oc2cc(OCC3CO3)cc(O)c12 (configuration not stated) ?
Found: satisfied

Lookup: Does inhibition meet or surpass 2% for O=c1c2cc3ccccc3cc2oc2cc(OCC3CS3)cc(OCC3CS3)c12 (configuration not stated) ?
Found: not satisfied

Lookup: Does inhibition meet or surpass 2% for O=c1c2ccc3ccccc3c2oc2cc(OCC3CS3)cc(OCC3CS3)c12 (configuration not stated) ?
Found: satisfied
